- test_system: serotonin 2 receptor (Rattus norvegicus, UniProt P14842)
- Sequence (P14842 whole entry): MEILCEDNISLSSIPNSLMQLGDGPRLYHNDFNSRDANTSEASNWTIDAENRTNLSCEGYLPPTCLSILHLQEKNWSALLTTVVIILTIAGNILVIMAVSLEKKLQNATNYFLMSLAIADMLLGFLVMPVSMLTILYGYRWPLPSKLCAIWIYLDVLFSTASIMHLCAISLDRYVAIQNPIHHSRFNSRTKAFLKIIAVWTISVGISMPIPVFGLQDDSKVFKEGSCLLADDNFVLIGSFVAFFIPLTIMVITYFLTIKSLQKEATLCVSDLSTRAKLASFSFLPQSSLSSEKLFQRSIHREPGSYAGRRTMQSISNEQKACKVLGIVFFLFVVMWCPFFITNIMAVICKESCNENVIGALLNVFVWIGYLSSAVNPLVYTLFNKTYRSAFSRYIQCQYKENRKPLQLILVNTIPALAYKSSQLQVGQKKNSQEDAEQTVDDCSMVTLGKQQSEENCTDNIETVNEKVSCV
Where a name gives a salt, the structure may show the parent alone.
Entries whose Ki is below 20 nM take Met; entries at or above 20 nM take Not met.

Is it true that Ki reported for CCN1CCN(c2nc(-c3ccc(OCCCC(C)(C)O)cc3)cc3sccc23)CC1 is less than 20 nM?
Not met

Please check: Ki for CCCN(C)C(=O)c1ccc(-c2cc3ccccc3c(N3CCN(CC)CC3)n2)cc1 , strictly under 20 nM or not?
Not met

State whether 20 nM exceeds Ki recorded for CCN1CCN(c2nc(-c3ccc(OCCC#N)cc3)cc3ccccc23)CC1 [Example 52, Hydrochloride] .
Met

Criterion: Ki strictly below 20 nM. Is it met by CCN1CCN(c2nc(/C=C/Cc3ccccc3OC)cc3ccccc23)CC1 ?
Not met

Quick check: Ki of CCN1CCN(c2nc(/C=C/c3ccncc3)cc3ccccc23)CC1 under 20 nM?
Met

Just wondering, is Ki of CCN1CCN(c2nc(-c3ccc(S(=O)(=O)CC)nc3)cc3ccccc23)CC1 [Example 130, Hydrochloride] below 20 nM?
Met

Identify whether the compound CCN1CCN(c2nc(-c3ccc(O[C@H](C)CO)cc3)cc3sccc23)CC1 (stereo in doubt) [Example 463, dihydrochloride] records Ki below 20 nM.
Not met

Please check: Ki for CCCCc1ccc(-c2cc3ccccc3c(N3CCN(CC)CC3)n2)cn1 , strictly under 20 nM or not?
Met

Problem: For the compound CCC(O)c1ccc(-c2cc3ccccc3c(N3CCN(CC)CC3)n2)cc1 (stereo not shown) [Example 19, hydrochloride] , is Ki under 20 nM?
Met

State whether 20 nM exceeds Ki recorded for CCN1CCN(c2nc(-c3ccc(OCCO)nc3)cc3ccsc23)CC1 [Example 268, Oxalate] .
Not met

Criterion: Ki strictly below 20 nM. Is it met by CCN1CCN(c2nc(-c3ccc(C(=O)NC4CCCC4)cc3)cc3ccsc23)CC1 [Example 453, dihydrochloride] ?
Not met

Take the compound CCN1CCN(c2nc(-c3ccc(CCC(C)O)cc3)cc3cccnc23)CC1 (stereo not shown) [Example 248, Dihydrochloride] and say whether its Ki is less than 20 nM.
Not met

Quick check: does CCN1CCN(c2nc(/C=C/c3ccc(CS(C)(=O)=O)cc3)cc3ccccc23)CC1 [Example 203, Oxalate] have Ki under 20 nM?
Met

Criterion: Ki strictly below 20 nM. Is it met by CCN1CCN(c2nc(-c3ccc(N4CCC(CO)CC4)nc3)cc3ccccc23)CC1 [Example 154, trihydrochloride] ?
Met

Please determine if CCN1CCN(c2nc(-c3ccc(OCCO)c(Cl)c3)cc3ccccc23)CC1 [Example 39, hydrochloride] is below 20 nM in terms of Ki.
Met

Below 20 nM on Ki? Entry CCN1CCN(c2nc(-c3ccc(CCCO)cc3)cc3ccccc23)CC1 [Example 20, hydrochloride]
Met

---

Counter-ions that a name gives are not always drawn.
measured_parameter: melting point

What value of melting point has been recorded for this entry: CCN1CCN(c2nc(-c3ccc(C#CC(C)(C)O)cc3)cc3sccc23)CC1 (as salt: oxalate)
124.5 to 125.5 °C

Recorded melting point for CCN1CCN(c2nc(-c3ccn(CCO)n3)cc3ccccc23)CC1 (as salt: hydrochloride) , please?
134 to 140 °C

# query: melting point of entry CCN1CCCN(c2nc(-c3ccc(OC)cc3)cc3ccccc23)CC1 (as salt: hydrochloride)
124 to 125 °C

So what does the record say about melting point for CCN1CCN(c2nc(C3CCc4c(OC)cccc43)cc3ccccc23)CC1 (stereo not shown) (as salt: hydrochloride) ?
108 to 110 °C

---

Counter-ions that a name gives are not always drawn.
measured_parameter: melting point

Dear colleague, I am looking for the recorded melting point of the following compound: CCN1CCN(c2nc(-c3ccc(OCC(O)COC)cc3)cc3ccccc23)CC1 (stereo not shown) (as salt: hydrochloride) [Example 343, dihydrochloride]
216.5 to 218 °C (dec.)

For the compound shown here, CCCS(=O)(=O)c1ccc(-c2cc3ccccc3c(N3CCN(CC)CC3)n2)cc1 (as salt: hydrochloride) [Example 349, dihydrochloride] , give the reported melting point.
240.5 to 242 °C (dec.)

GET /values?readout=melting point&item= CCN1CCN(c2nc(-c3ccc(C4CCOCC4)nc3)cc3ccccc23)CC1 (as salt: oxalate)
158 to 160 °C

Form field: reported melting point of CCN1CCN(c2nc(C(=O)c3ccccc3OC)cc3ccccc23)CC1 (as salt: oxalate)
153 to 156 °C

Fill in the blank: the reported melting point of CCCC(=O)Nc1ccc(-c2cc3ccccc3c(N3CCN(CC)CC3)n2)cn1 (as salt: hydrochloride) is ____.
168 to 171 °C

Tell me the measured melting point of CCN1CCN(c2nc(-c3ccc(OCCO)c(C(C)C)c3)cc3ccccc23)CC1 (as salt: hydrochloride) , please.
248 to 250 °C (dec.)

Value lookup for melting point; key = CCC(O)c1ccc(-c2cc3sccc3c(N3CCN(CC)CC3)n2)cc1 (stereo not shown) (as salt: oxalate)
130 to 131 °C

Fill in: melting point of CCN1CCN(c2nc(-c3ccc(OCCCc4ccncc4)cc3)cc3ccccc23)CC1 (as salt: hydrochloride) is ___
129 to 131 °C

Name the reported melting point value associated with the compound CN1CCN(c2nc(-c3ccc(OCCO)cc3)cc3ccccc23)CC1 (as salt: hydrochloride)
131 to 144 °C

Quick one: melting point for CCN1CCN(c2nc(-c3ccc(C(=O)N4CCCC4)cc3)cc3ccsc23)CC1 (as salt: hydrochloride) [Example 274, dihydrochloride] ?
143 to 146 °C

I have this compound here, CCN1CCN(c2nc(C=C(COC)c3ccccc3)cc3ccccc23)CC1 (stereo in doubt) (as salt: oxalate) , and I need its recorded melting point.
180 to 182 °C

Which melting point reading was recorded for the compound CCN1CCN(c2nc(Cc3ccccc3)cc3ccccc23)CC1 (as salt: hydrochloride) ?
118 to 119 °C

Given the entry CCN1CCN(c2nc(-c3ccc(O[C@H](C)CO)cc3)cc3sccc23)CC1 (stereo in doubt) (as salt: hydrochloride) [Example 463, dihydrochloride] , report its measured melting point.
124 to 125 °C

---

Structures can show the parent of a compound that is named as a salt.
Answer each item with its documented melting point.

Given the entry CCN1CCN(c2nc(C#Cc3ncccc3OCCO)cc3ccccc23)CC1 (as salt: hydrochloride) , report its measured melting point.
153 to 159 °C

Look up melting point for this molecule: CCN1CCN(c2nc(-c3ccc(OCCOC)c(OCCOC)c3)cc3ccccc23)CC1 (as salt: hydrochloride)
143 to 144 °C

Recorded melting point for CCN1CCN(c2nc(-c3ccc(OC)cc3)cc3ncccc23)CC1 (as salt: hydrochloride) [Example 252, Dihydrochloride] , please?
242 to 245 °C

Find the recorded melting point belonging to COc1ccc(-c2cc3ccccc3c(NCCc3ccccn3)n2)cc1.Cl and report it.
138 to 140 °C

---

Structures can show the parent of a compound that is named as a salt.
measured_parameter: Ki (nM)
Express it in nM; write the number only.

Requested read-out Ki, target or system serotonin 2 receptor (Rattus norvegicus, UniProt P14842), entry CCN1CCN(c2nc(-c3ccc(OC(C)COC)nc3)cc3ccsc23)CC1 (stereo not shown) [Example 267, Hydrochloride]
68.7

Record lookup: for serotonin 2 receptor (Rattus norvegicus, UniProt P14842), what Ki belongs to CCN1CCN(c2nc(-c3ccc(OCC4OCCO4)cc3)cc3ccccc23)CC1 ?
2.6

Write down the reported Ki of CCN1CCN(c2nc(-c3ccc(C4=CCC(O)CC4)cc3)cc3ccsc23)CC1 (stereo not shown) [Example 270, hydrochloride] , test system: serotonin 2 receptor (Rattus norvegicus, UniProt P14842).
30.3

Query the reported Ki for serotonin 2 receptor (Rattus norvegicus, UniProt P14842); item: CCN1CCN(c2nc(C#Cc3cncc(CCCOC)c3)cc3ccccc23)CC1
4.5

---

Where a name gives a salt, the structure may show the parent alone.
Kindly state melting point for each of the entries shown.

What value of measured melting point is listed for CCN1CCN(c2nc(C(O)c3ccc(OC)cc3)cc3ccccc23)CC1 (stereo not shown) (as salt: oxalate) ?
95 to 97 °C

melting point lookup needed for CCN1CCN(c2nc(C3=CCCc4ccc(OC)cc43)cc3ccccc23)CC1 (as salt: oxalate) , thanks.
150 to 153 °C

Field request: melting point | item: CCN1CCN(c2nc(-c3ccc(S(=O)(=O)CC)cc3)cc3ccccc23)CC1 (as salt: hydrochloride) [Example 366, dihydrochloride]
150 to 151.5 °C

Requested read-out: melting point. Entry: CCN1CCN(c2nc(-c3ccc(CC(C)(C)CO)cc3)cc3ccccc23)CC1 (as salt: oxalate)
194 to 195 °C
